Tested on: Signal transducer and activator of transcription 3 (Homo sapiens)
Sequence (P40763 whole entry): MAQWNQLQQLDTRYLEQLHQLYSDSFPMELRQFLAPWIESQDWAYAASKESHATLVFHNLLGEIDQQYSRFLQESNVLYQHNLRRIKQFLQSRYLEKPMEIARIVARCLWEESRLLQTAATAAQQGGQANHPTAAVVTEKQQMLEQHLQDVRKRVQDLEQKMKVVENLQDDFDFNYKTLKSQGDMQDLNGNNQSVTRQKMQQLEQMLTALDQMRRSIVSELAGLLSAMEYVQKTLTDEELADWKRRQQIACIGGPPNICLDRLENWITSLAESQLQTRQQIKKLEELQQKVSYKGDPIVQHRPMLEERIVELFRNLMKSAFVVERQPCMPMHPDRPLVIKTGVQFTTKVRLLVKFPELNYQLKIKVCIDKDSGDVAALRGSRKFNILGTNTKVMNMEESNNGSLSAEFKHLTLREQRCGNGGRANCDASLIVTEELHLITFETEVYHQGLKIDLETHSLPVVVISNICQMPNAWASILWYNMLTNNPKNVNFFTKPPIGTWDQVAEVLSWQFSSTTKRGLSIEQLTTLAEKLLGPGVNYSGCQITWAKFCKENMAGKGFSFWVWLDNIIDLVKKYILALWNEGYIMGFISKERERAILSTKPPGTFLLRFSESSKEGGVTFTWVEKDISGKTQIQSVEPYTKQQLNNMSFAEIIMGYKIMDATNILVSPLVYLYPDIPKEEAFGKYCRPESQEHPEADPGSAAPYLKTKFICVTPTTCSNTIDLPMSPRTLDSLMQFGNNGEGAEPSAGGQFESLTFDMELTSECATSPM
Procedure summary: Inhibition of STAT3 activation in human MDA-MB-231 cells assessed as reduction in STAT3 phosphorylation at Tyr705 residue at 1 uM measured after 24 hrs by Western blot analysis relative to control
Type: cell-based
Activity calls are given as the source filed them. No cut-off for these calls is given here.
Outcome measure: inhibition

1) CCN(CC)CCCN1CCc2c(oc3c2C(=O)C(=O)c2ccccc2-3)C1=O | Active
2) O=C1C(=O)c2c(oc3c2CCN(CCN2CCCCC2)C3=O)-c2ccccc21 | Active
3) CCN(CC)CCN1CCc2c(oc3c2C(=O)C(=O)c2ccccc2-3)C1=O | Active
4) CN(C)CCN1CCc2c(oc3c2C(=O)C(=O)c2ccccc2-3)C1=O | Active
5) O=C1C(=O)c2c(oc3c2CCN(CCCN2CCCCC2)C3=O)-c2ccccc21 | 100%

---

Test system: MCF7
Procedure summary: Antiproliferative activity against human MCF7 cells incubated for 48 hrs by MTT assay
Format: functional, cell-based
Recorded conditions: MCF7, 48 h
Outcome measure: IC50

1. O=C1C(=O)c2c(oc3c2CCN(CCN2CCCCC2)C3=O)-c2ccccc21 | 1050 nM
2. CC1(C)CCC2=C(O1)c1ccccc1C(=O)C2=O [LAPACHONE] | 3990 nM

---

Procedure summary: Selectivity ratio of IC50 for cytotoxicity against human MCF-10A cells to IC50 for antiproliferative activity against human MDA-MB-231 cells
Format: toxicity, cell-based
Recorded conditions: MCF-10A cells versus MDA-MB-231 cells, read-out: Ratio IC50
Outcome measure: selectivity ratio

1. O=C1C(=O)c2c(oc3c2CCN(CCN2CCCCC2)C3=O)-c2ccccc21 | ~6

---

Procedure summary: Cytotoxicity against human MCF-10A cells
Format: toxicity, cell-based
Outcome measure: IC50 (µM)

1. O=C1C(=O)c2c(oc3c2CCN(CCN2CCCCC2)C3=O)-c2ccccc21 | 3.33
